# assay: qHTS assay for cell viability of HEK293 cells (AID 743288); also: % is scaled to controls: 0 for no effect and ±100 for the full control effect; nearly all actives have a fitted effect of over 50% in size
# conditions: ATP luminescence (CellTiter-Glo), 18 h, hits give low values
Results filed as inconclusive are left out.
experimental_readout: max response (%)
Kindly answer with a numeric value in %, unit omitted.

Below: 3 compounds and their reported max response.
Indicate the recorded max response value for this compound: C=C(C)C(=O)OCC(C)O (configuration not stated)
-4.55

Indicate its recorded max response; the compound in question is Cc1ccc(C)cc1
-11.4

Kindly indicate its recorded max response. Item: c1ccsc1
6.51

New cases:
Using the record for O=C(O)c1cccc(Cl)c1Cl , state its measured max response.
6.72

Look up max response of Cc1cc(C)c(N)cc1C and report it.
-5.87

Identify measured max response corresponding to COc1ccc(N=[N+]([O-])c2ccc(OC)cc2)cc1
-5.78

Provide only the value of recorded max response for CC(=O)Nc1cccc(N)c1
8.3

Indicate the recorded max response value for this compound: O=C(O)c1ccccc1[N+](=O)[O-]
3.94

Report measured max response; entry is Nc1cccc(S(=O)(=O)O)c1
0.367

Tell me measured max response for CCCC(C)CO (configuration not stated) please.
-5.68

Return reported max response. Input compound: Cc1cc(C)cc(N)c1
-3.25

Recall and state the measured max response for c1ccc2[nH]cnc2c1 .
3.37
